Biological target: human ERα (Homo sapiens)
Experiment: NF-κB luciferase reporter (ER/NF-KB-luc) in Ad5-wt-hERα infected HAECT-1 cells
Conditions: HAECT1, read-out: ER/NF-KB-luc % E2, efficacy relative to the maximal inhibition observed with E2
outcome.measure: Emax

[[record]]
compound = "C=CCn1nc2c(Cl)cccc2c1-c1ccc(O)cc1C [Example 78]"
reported_value = "90%"

[[record]]
compound = "Oc1ccc(-c2nn(C3CCCCC3)c3c(F)cccc23)cc1 [Example 33]"
reported_value = "92%"

[[record]]
compound = "OCCn1nc(-c2ccc(O)cc2O)c2cc(F)ccc21 [Example 192]"
reported_value = "87%"

[[record]]
compound = "OCCn1nc(-c2ccc(O)cc2)c2ccccc21 [Example 158]"
reported_value = "106%"

[[record]]
compound = "CC(C)n1nc(-c2ccc(O)cc2)c2cccc(-c3ccco3)c21 [Example 267]"
reported_value = "64%"

[[record]]
compound = "CC(C)n1nc(-c2ccc(O)cc2O)c2cccc(C(F)(F)F)c21 [Example 65]"
reported_value = "86%"

[[record]]
compound = "Cc1cc(O)ccc1-c1nn(C2CCCC2)c2c(-c3ccccc3C)cccc12 [Example 264]"
reported_value = "74%"


----------
Target: human ERα (Homo sapiens, UniProt P03372)
Assay: Creatine kinase expression (ER/CK) in Ad5-wt-hERα infected HAECT-1 cells
Settings: efficacy relative to the maximal stimulation observed with E2
outcome.measure: ER/CK % E2 (% E2)

[[record]]
compound = "COc1ccc(-n2nc(-c3ccc(O)cc3O)c3ccc(O)cc32)cc1 [Example 11]"
reported_value = 26

[[record]]
compound = "C=CCn1nc2c(C(F)(F)F)cccc2c1-c1ccc(O)cc1 [Example 59]"
reported_value = 36

[[record]]
compound = "Cn1nc(-c2ccc(O)cc2)c2cc(C(F)(F)F)ccc21 [Example 171]"
reported_value = 42

[[record]]
compound = "Cc1ccccc1-c1cccc2c(-c3ccc(O)cc3)nn(C(C)C)c12 [Example 235]"
reported_value = 35


----------
Biological target: human ERα (Homo sapiens)
Sequence (P03372 1-595): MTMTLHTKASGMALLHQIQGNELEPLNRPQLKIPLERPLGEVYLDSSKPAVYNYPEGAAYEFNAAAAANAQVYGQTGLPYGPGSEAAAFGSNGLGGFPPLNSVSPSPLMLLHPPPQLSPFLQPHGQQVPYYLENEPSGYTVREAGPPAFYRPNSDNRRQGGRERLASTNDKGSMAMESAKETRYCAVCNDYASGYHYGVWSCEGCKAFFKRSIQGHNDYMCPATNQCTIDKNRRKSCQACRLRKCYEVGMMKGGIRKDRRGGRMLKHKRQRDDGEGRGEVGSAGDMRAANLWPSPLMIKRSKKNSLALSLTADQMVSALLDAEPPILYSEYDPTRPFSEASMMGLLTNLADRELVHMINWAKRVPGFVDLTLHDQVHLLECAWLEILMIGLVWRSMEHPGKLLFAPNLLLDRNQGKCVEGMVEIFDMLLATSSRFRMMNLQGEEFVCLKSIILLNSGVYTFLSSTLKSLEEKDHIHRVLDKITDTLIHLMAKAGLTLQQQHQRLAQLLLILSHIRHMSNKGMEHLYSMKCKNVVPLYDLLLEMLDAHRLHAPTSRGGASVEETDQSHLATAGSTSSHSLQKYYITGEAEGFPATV
Assay: NF-κB luciferase reporter (ER/NF-KB-luc) in Ad5-wt-hERα infected HAECT-1 cells
Conditions: ER/NF-KB-luc IC50, Ad5-wt-ER infected HAECT-1 cells, IL-1β
pIC50: −log10 of the molar value.
Label t for high-side pIC50 (at or above 7) and f for low-side pIC50 (below it).

[[record]]
compound = "CCc1ccc(-c2cccc3c(-c4ccc(O)cc4C)nn(C4CCCC4)c23)cc1 [Example 260]"
discrete_label = "t"

[[record]]
compound = "CCCn1nc(-c2ccc(OC(=O)CC(C)(C)C)cc2)c2cccc(Cl)c21 [Example 122]"
discrete_label = "f"

[[record]]
compound = "CC(C)n1nc(-c2ccc(O)cc2)c2cccc(F)c21 [Example 55]"
discrete_label = "t"

[[record]]
compound = "COc1ccc(-n2nc(-c3ccc(O)cc3O)c3ccc(O)cc32)cc1 [Example 11]"
discrete_label = "t"

[[record]]
compound = "CCNC(=O)Oc1ccc(-c2nn(C3CCCC3)c3c(F)cccc23)cc1 [Example 118]"
discrete_label = "f"

[[record]]
compound = "Cn1nc(-c2ccc(O)cc2)c2cc(F)c(Cl)cc21 [Example 125]"
discrete_label = "f"

[[record]]
compound = "Oc1ccc(-c2nn(-c3cccc(C(F)(F)F)c3)c3cc(O)ccc23)c(O)c1 [Example 26]"
discrete_label = "f"

[[record]]
compound = "Oc1ccc(-c2n[nH]c3ccccc23)cc1O [Example 202, 4-(1H-indazol-3-yl)benzene-1,2-diol]"
discrete_label = "f"

[[record]]
compound = "OCCn1nc(-c2ccc(O)cc2)c2ccccc21 [Example 158]"
discrete_label = "f"

[[record]]
compound = "CC(C)n1nc(-c2ccc(O)cc2O)c2cccc(Cl)c21 [Example 80]"
discrete_label = "t"

[[record]]
compound = "Cn1nc(-c2ccc(O)c(O)c2)c2cccc(C(F)(F)F)c21 [Example 176]"
discrete_label = "f"

[[record]]
compound = "O=[N+]([O-])c1cccc(-n2nc(-c3ccc(O)cc3O)c3ccc(O)cc32)c1 [Example 25]"
discrete_label = "f"

[[record]]
compound = "Cn1nc(-c2ccc(O)cc2O)c2cccc(Cl)c21 [Example 170]"
discrete_label = "f"

[[record]]
compound = "CC(C)Cn1nc(-c2ccc(O)cc2O)c2cccc(F)c21 [Example 94]"
discrete_label = "f"

[[record]]
compound = "CC(C)n1nc(-c2ccc(O)cc2)c2cccc(-c3ccc(O)c(O)c3)c21 [Example 231]"
discrete_label = "f"

[[record]]
compound = "C=CCn1nc(-c2ccc(O)cc2)c2cccc(C)c21 [Example 57]"
discrete_label = "t"


----------
Molecular target: human ERα (Homo sapiens)
Test: Creatine kinase expression (ER/CK) in Ad5-wt-hERα infected HAECT-1 cells
Details: efficacy relative to the maximal stimulation observed with E2
Reported ER/CK % E2 by item:
outcome.measure: ER/CK % E2 (% E2)

[[record]]
structure_smiles_string = "CC(C)n1nc(-c2ccc(O)cc2)c2cccc(F)c21"
reported_value = 49

[[record]]
structure_smiles_string = "CC(C)n1nc(-c2ccc(O)cc2)c2cccc(-c3ccco3)c21"
reported_value = 35

[[record]]
structure_smiles_string = "Oc1ccc(-c2nn(-c3ccccc3Cl)c3cc(O)ccc23)c(O)c1"
reported_value = 45

[[record]]
structure_smiles_string = "Cc1cc(O)ccc1-c1nn(C2CCCC2)c2c(-c3ccccc3C)cccc12"
reported_value = 21

[[record]]
structure_smiles_string = "CCCn1nc(-c2ccc(O)cc2C)c2cccc(Cl)c21"
reported_value = 27

[[record]]
structure_smiles_string = "CCC(CC)Cn1nc(-c2ccc(O)cc2O)c2cccc(C(F)(F)F)c21"
reported_value = 32

[[record]]
structure_smiles_string = "CCCn1nc2c(C)cccc2c1-c1ccc(O)cc1"
reported_value = 70

[[record]]
structure_smiles_string = "COc1ccccc1-n1nc(-c2ccc(O)cc2O)c2ccc(O)cc21"
reported_value = 58

[[record]]
structure_smiles_string = "CC(C)n1nc(-c2ccc(O)cc2)c2cccc(Cl)c21"
reported_value = 43

[[record]]
structure_smiles_string = "CCCn1nc2c(Cl)cccc2c1-c1ccc(O)cc1"
reported_value = 48

[[record]]
structure_smiles_string = "Cc1cc(O)ccc1-c1nn(C2CCCC2)c2c(-c3cc4ccccc4s3)cccc12"
reported_value = 35

[[record]]
structure_smiles_string = "C=CCn1nc(-c2ccc(O)cc2)c2cccc(F)c21"
reported_value = 43

[[record]]
structure_smiles_string = "CC(C)n1nc2c(Cl)cccc2c1-c1ccc(O)cc1"
reported_value = 67


----------
Target: human ERα (Homo sapiens)
Test: NF-κB luciferase reporter (ER/NF-KB-luc) in Ad5-wt-hERα infected HAECT-1 cells
Conditions: HAECT1, read-out: ER/NF-KB-luc % E2, efficacy relative to the maximal inhibition observed with E2
Reported Emax by item:
outcome.measure: Emax (%)

[[record]]
molecule = "CC(C)n1nc(-c2ccc(O)cc2)c2cccc(-c3ccc(O)c(O)c3)c21 [Example 231]"
experimental_target = "human ERα (Homo sapiens)"
outcome_measure = "Emax"
reported_value = 78

[[record]]
molecule = "Oc1ccc(-c2nn(-c3cccc(C(F)(F)F)c3)c3cc(O)ccc23)c(O)c1 [Example 26]"
experimental_target = "human ERα (Homo sapiens)"
outcome_measure = "Emax"
reported_value = 101

[[record]]
molecule = "CC(C)c1ccc(-n2nc(-c3ccc(O)cc3O)c3ccc(O)cc32)cc1 [Example 27]"
experimental_target = "human ERα (Homo sapiens)"
outcome_measure = "Emax"
reported_value = 96

[[record]]
molecule = "Oc1ccc(-c2nn(C3CCCC3)c3c(F)cccc23)c(O)c1 [Example 88]"
experimental_target = "human ERα (Homo sapiens)"
outcome_measure = "Emax"
reported_value = 74

[[record]]
molecule = "CC(C)n1nc(-c2ccc(O)cc2)c2cccc(-c3cccs3)c21 [Example 227]"
experimental_target = "human ERα (Homo sapiens)"
outcome_measure = "Emax"
reported_value = 70

[[record]]
molecule = "CCCCCn1nc2c(Cl)cccc2c1-c1ccc(O)cc1 [Example 42]"
experimental_target = "human ERα (Homo sapiens)"
outcome_measure = "Emax"
reported_value = 102

[[record]]
molecule = "CCCn1nc(-c2ccc(O)cc2)c2cccc(F)c21 [Example 53]"
experimental_target = "human ERα (Homo sapiens)"
outcome_measure = "Emax"
reported_value = 84

[[record]]
molecule = "Oc1ccc(-c2nn(C3CCCC3)c3c(-c4cccs4)cccc23)cc1 [Example 238]"
experimental_target = "human ERα (Homo sapiens)"
outcome_measure = "Emax"
reported_value = 74

[[record]]
molecule = "Oc1ccc(-c2nn(-c3ccc(OC(F)(F)F)cc3)c3cc(O)ccc23)c(O)c1 [Example 13]"
experimental_target = "human ERα (Homo sapiens)"
outcome_measure = "Emax"
reported_value = 97

[[record]]
molecule = "Oc1ccc(-c2nn(-c3cccc(Br)c3)c3cc(O)ccc23)c(O)c1 [Example 14]"
experimental_target = "human ERα (Homo sapiens)"
outcome_measure = "Emax"
reported_value = 73

[[record]]
molecule = "Cc1cc(O)ccc1-c1nn(C(C)C)c2c(-c3ccsc3)cccc12 [Example 247]"
experimental_target = "human ERα (Homo sapiens)"
outcome_measure = "Emax"
reported_value = 70

[[record]]
molecule = "CCCCn1nc(-c2ccc(O)cc2)c2cc(C(F)(F)F)ccc21 [Example 206]"
experimental_target = "human ERα (Homo sapiens)"
outcome_measure = "Emax"
reported_value = 84

[[record]]
molecule = "Oc1ccc(-c2nn(Cc3ccccc3)c3c(F)cccc23)cc1 [Example 145]"
experimental_target = "human ERα (Homo sapiens)"
outcome_measure = "Emax"
reported_value = 66

[[record]]
molecule = "CCCn1nc(-c2ccc(O)cc2C)c2cccc(F)c21 [Example 93]"
experimental_target = "human ERα (Homo sapiens)"
outcome_measure = "Emax"
reported_value = 60

[[record]]
molecule = "CCCCC/C=C/c1cccc2c(-c3ccc(O)cc3C)nn(C(C)C)c12 [Example 248]"
experimental_target = "human ERα (Homo sapiens)"
outcome_measure = "Emax"
reported_value = 73

